Tested on: LG0703-F948-PDC complex spheroid viability
TEST_DESCRIPTION: Anticancer human tumor LG0703-F948-PDC patient-derived lung adenocarcinoma cell line growth inhibition [RAS]
CONDITION_LABEL: second compound 0.000949 µM; first compound 0.0316 µM; stronger effect = lower value
Rule: viability, T/C below 60% gives Satisfied. Equal to or above 60% gives Not satisfied.

Input: Confirm or reject: viability, T/C of Cc1nc(N2CCC3(CC2)COC(C)C3N)c(CO)nc1Sc1ccnc(N)c1Cl (centres undefined) + CCn1c(-c2cccnc2C(C)OC)c2c3cc(ccc31)N1CCOC(CC(NC(=O)C(C(C)C)N(C)C(=O)C3(F)CCN(C(=O)C#CC(C)(C)N(C)C)CC3)C(=O)N3CCCC(N3)C(=O)OCC(C)(C)C2)C1 lies strictly below 60%
Output: Not satisfied

Input: Confirm or reject: viability, T/C of C[C@@H](NC(=O)c1ncnc(N)c1Cl)c1ncc(C(=O)Nc2cc(C(F)(F)F)c(Cl)cn2)s1 + CCn1c(-c2cc(N3CCN(C)CC3)cnc2C(C)OC)c2c3cc(ccc31)-c1csc(n1)CC(NC(=O)C1CC1C)C(=O)N1CCCC(N1)C(=O)OCC(C)(C)C2 lies strictly below 60%
Output: Not satisfied

Input: Confirm or reject: viability, T/C of CC(C)n1nc(-c2ccc3oc(N)nc3c2)c2c(N)ncnc21 + CCn1c(-c2cc(N3CCN(C)CC3)cnc2C(C)OC)c2c3cc(ccc31)-c1csc(n1)CC(NC(=O)C1CC1C)C(=O)N1CCCC(N1)C(=O)OCC(C)(C)C2 lies strictly below 60%
Output: Satisfied

Input: Confirm or reject: viability, T/C of CC(C)NCC(C(=O)N1CCN(c2ncnc3c2C(C)CC3O)CC1)c1ccc(Cl)cc1 (centres undefined) + CCn1c(-c2cc(N3CCN(C)CC3)cnc2C(C)OC)c2c3cc(ccc31)-c1csc(n1)CC(NC(=O)C1CC1C)C(=O)N1CCCC(N1)C(=O)OCC(C)(C)C2 lies strictly below 60%
Output: Not satisfied

Input: Confirm or reject: viability, T/C of CC(C)n1nc(-c2ccc3oc(N)nc3c2)c2c(N)ncnc21 + CCn1c(-c2cccnc2C(C)OC)c2c3cc(ccc31)N1CCOC(CC(NC(=O)C(C(C)C)N(C)C(=O)C3(F)CCN(C(=O)C#CC(C)(C)N(C)C)CC3)C(=O)N3CCCC(N3)C(=O)OCC(C)(C)C2)C1 lies strictly below 60%
Output: Satisfied

Input: Confirm or reject: viability, T/C of C=CC(=O)N1CCN(c2nc(OCC3CCCN3C)nc3c(F)c(-c4nc(N)cc(C)c4C(F)(F)F)c(Cl)cc23)C(C)C1 (centres undefined) + CCn1c(-c2cccnc2C(C)OC)c2c3cc(ccc31)N1CCOC(CC(NC(=O)C(C(C)C)N(C)C(=O)C3(F)CCN(C(=O)C#CC(C)(C)N(C)C)CC3)C(=O)N3CCCC(N3)C(=O)OCC(C)(C)C2)C1 lies strictly below 60%
Output: Not satisfied

Input: Confirm or reject: viability, T/C of CC(Nc1ccc2c(c1)OCCn1cc(N3C(=O)OCC3C(F)F)nc1-2)C(N)=O (centres undefined) + CCn1c(-c2cccnc2C(C)OC)c2c3cc(ccc31)N1CCOC(CC(NC(=O)C(C(C)C)N(C)C(=O)C3(F)CCN(C(=O)C#CC(C)(C)N(C)C)CC3)C(=O)N3CCCC(N3)C(=O)OCC(C)(C)C2)C1 lies strictly below 60%
Output: Not satisfied

Input: Confirm or reject: viability, T/C of C[C@@H](NC(=O)c1ncnc(N)c1Cl)c1ncc(C(=O)Nc2cc(C(F)(F)F)c(Cl)cn2)s1 + CCn1c(-c2cccnc2C(C)OC)c2c3cc(ccc31)N1CCOC(CC(NC(=O)C(C(C)C)N(C)C(=O)C3(F)CCN(C(=O)C#CC(C)(C)N(C)C)CC3)C(=O)N3CCCC(N3)C(=O)OCC(C)(C)C2)C1 lies strictly below 60%
Output: Not satisfied

Input: Confirm or reject: viability, T/C of CCN1CCN(Cc2ccc(Nc3ncc(F)c(-c4cc(F)c5nc(C)n(C(C)C)c5c4)n3)nc2)CC1 + CCn1c(-c2cccnc2C(C)OC)c2c3cc(ccc31)N1CCOC(CC(NC(=O)C(C(C)C)N(C)C(=O)C3(F)CCN(C(=O)C#CC(C)(C)N(C)C)CC3)C(=O)N3CCCC(N3)C(=O)OCC(C)(C)C2)C1 lies strictly below 60%
Output: Not satisfied

Input: Confirm or reject: viability, T/C of Nc1ccn(C2OC(CO)C(O)C2(F)F)c(=O)n1 (centres undefined) + CCn1c(-c2cc(N3CCN(C)CC3)cnc2C(C)OC)c2c3cc(ccc31)-c1csc(n1)CC(NC(=O)C1CC1C)C(=O)N1CCCC(N1)C(=O)OCC(C)(C)C2 lies strictly below 60%
Output: Satisfied

Input: Confirm or reject: viability, T/C of CCC(CC)c1cc(NC2CCC(N)C2)n2nccc2n1 (centres undefined) + CCn1c(-c2cccnc2C(C)OC)c2c3cc(ccc31)N1CCOC(CC(NC(=O)C(C(C)C)N(C)C(=O)C3(F)CCN(C(=O)C#CC(C)(C)N(C)C)CC3)C(=O)N3CCCC(N3)C(=O)OCC(C)(C)C2)C1 lies strictly below 60%
Output: Not satisfied

Input: Confirm or reject: viability, T/C of CC(=O)OC12COC1CC(O)C1(C)C(=O)C(O)C3=C(C)C(OC(=O)C(O)C(NC(=O)OC(C)(C)C)c4ccccc4)CC(O)(C(OC(=O)c4ccccc4)C21)C3(C)C (centres undefined) + CCn1c(-c2cc(N3CCN(C)CC3)cnc2C(C)OC)c2c3cc(ccc31)-c1csc(n1)CC(NC(=O)C1CC1C)C(=O)N1CCCC(N1)C(=O)OCC(C)(C)C2 lies strictly below 60%
Output: Satisfied

Input: Confirm or reject: viability, T/C of C=CC(=O)Nc1cc(Nc2nccc(-c3cn(C)c4ccccc34)n2)c(OC)cc1N(C)CCN(C)C + CCn1c(-c2cc(N3CCN(C)CC3)cnc2C(C)OC)c2c3cc(ccc31)-c1csc(n1)CC(NC(=O)C1CC1C)C(=O)N1CCCC(N1)C(=O)OCC(C)(C)C2 lies strictly below 60%
Output: Satisfied

* * *

System: LG0703-F948-PDC complex spheroid viability
TEST_DESCRIPTION: Anticancer human tumor LG0703-F948-PDC cell line growth inhibition [RAS];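 also: spheroids exposed to agents for 7 days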
CONDITION_LABEL: curve of first compound; second compound 0.003 µM
Rule: IC50 below 60 nM gives True. Equal to or above 60 nM gives False.

Input: Confirm or reject: IC50 of C=CC(=O)Nc1cc(Nc2nccc(-c3cn(C)c4ccccc34)n2)c(OC)cc1N(C)CCN(C)C + CCn1c(-c2cccnc2C(C)OC)c2c3cc(ccc31)N1CCOC(CC(NC(=O)C(C(C)C)N(C)C(=O)C3(F)CCN(C(=O)C#CC(C)(C)N(C)C)CC3)C(=O)N3CCCC(N3)C(=O)OCC(C)(C)C2)C1 lies strictly below 60 nM
Output: True

Input: Confirm or reject: IC50 of CC(C)n1nc(-c2ccc3oc(N)nc3c2)c2c(N)ncnc21 + CCn1c(-c2cc(N3CCN(C)CC3)cnc2C(C)OC)c2c3cc(ccc31)-c1csc(n1)CC(NC(=O)C1CC1C)C(=O)N1CCCC(N1)C(=O)OCC(C)(C)C2 lies strictly below 60 nM
Output: True

Input: Confirm or reject: IC50 of O=C(c1ccc(F)c(F)c1Nc1ccc(I)cc1F)N1CC(O)([C@@H]2CCCCN2)C1 + CCn1c(-c2cccnc2C(C)OC)c2c3cc(ccc31)N1CCOC(CC(NC(=O)C(C(C)C)N(C)C(=O)C3(F)CCN(C(=O)C#CC(C)(C)N(C)C)CC3)C(=O)N3CCCC(N3)C(=O)OCC(C)(C)C2)C1 lies strictly below 60 nM
Output: False

Input: Confirm or reject: IC50 of CCc1c2c(nc3ccc(O)cc13)-c1cc3c(c(=O)n1C2)COC(=O)[C@]3(O)CC + CCn1c(-c2cccnc2C(C)OC)c2c3cc(ccc31)N1CCOC(CC(NC(=O)C(C(C)C)N(C)C(=O)C3(F)CCN(C(=O)C#CC(C)(C)N(C)C)CC3)C(=O)N3CCCC(N3)C(=O)OCC(C)(C)C2)C1 lies strictly below 60 nM
Output: False

Input: Confirm or reject: IC50 of CC(C)NCC(C(=O)N1CCN(c2ncnc3c2C(C)CC3O)CC1)c1ccc(Cl)cc1 (centres undefined) + CCn1c(-c2cccnc2C(C)OC)c2c3cc(ccc31)N1CCOC(CC(NC(=O)C(C(C)C)N(C)C(=O)C3(F)CCN(C(=O)C#CC(C)(C)N(C)C)CC3)C(=O)N3CCCC(N3)C(=O)OCC(C)(C)C2)C1 lies strictly below 60 nM
Output: False

Input: Confirm or reject: IC50 of CC1(C)CCC(Nc2ncc(C(F)(F)F)c(-c3c[nH]c4c(P(C)(C)=O)c(C#N)ccc34)n2)CN1 (centres undefined) + CCn1c(-c2cccnc2C(C)OC)c2c3cc(ccc31)N1CCOC(CC(NC(=O)C(C(C)C)N(C)C(=O)C3(F)CCN(C(=O)C#CC(C)(C)N(C)C)CC3)C(=O)N3CCCC(N3)C(=O)OCC(C)(C)C2)C1 lies strictly below 60 nM
Output: False

Input: Confirm or reject: IC50 of CC(Nc1ccc2c(c1)OCCn1cc(N3C(=O)OCC3C(F)F)nc1-2)C(N)=O (centres undefined) + CCn1c(-c2cccnc2C(C)OC)c2c3cc(ccc31)N1CCOC(CC(NC(=O)C(C(C)C)N(C)C(=O)C3(F)CCN(C(=O)C#CC(C)(C)N(C)C)CC3)C(=O)N3CCCC(N3)C(=O)OCC(C)(C)C2)C1 lies strictly below 60 nM
Output: False

Input: Confirm or reject: IC50 of Cc1nc(N2CCC3(CC2)COC(C)C3N)c(CO)nc1Sc1ccnc(N)c1Cl (centres undefined) + CCn1c(-c2cc(N3CCN(C)CC3)cnc2C(C)OC)c2c3cc(ccc31)-c1csc(n1)CC(NC(=O)C1CC1C)C(=O)N1CCCC(N1)C(=O)OCC(C)(C)C2 lies strictly below 60 nM
Output: True

Input: Confirm or reject: IC50 of C=CC(=O)N1CCN(c2nc(OCC3CCCN3C)nc3c(F)c(-c4nc(N)cc(C)c4C(F)(F)F)c(Cl)cc23)C(C)C1 (centres undefined) + CCn1c(-c2cc(N3CCN(C)CC3)cnc2C(C)OC)c2c3cc(ccc31)-c1csc(n1)CC(NC(=O)C1CC1C)C(=O)N1CCCC(N1)C(=O)OCC(C)(C)C2 lies strictly below 60 nM
Output: True
